targetOrTestSystem: recombinant human 5-HT5A receptor (Homo sapiens, UniProt P47898)
Construct: membranes
Sequence (P47898 whole entry): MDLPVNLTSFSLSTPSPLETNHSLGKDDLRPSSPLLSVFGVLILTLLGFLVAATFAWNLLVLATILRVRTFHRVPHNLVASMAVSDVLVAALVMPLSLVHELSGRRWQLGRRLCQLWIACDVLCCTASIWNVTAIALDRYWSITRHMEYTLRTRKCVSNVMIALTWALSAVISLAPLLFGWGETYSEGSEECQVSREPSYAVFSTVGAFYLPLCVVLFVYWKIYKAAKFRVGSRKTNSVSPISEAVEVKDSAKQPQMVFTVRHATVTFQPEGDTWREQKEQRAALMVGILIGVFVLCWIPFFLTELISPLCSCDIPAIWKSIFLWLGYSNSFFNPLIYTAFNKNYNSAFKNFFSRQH
experimentNotes: [3H]LSD radioligand binding assay
experimentalConditions: [3H]LSD approx. 1 nM; membranes from HEK-EBNA cells transiently expressing 5-HT5A; Ki from IC50 by Cheng-Prussoff
pKi: −log10 of the molar value.
propertyMeasured: pKi

Consider the worked cases shown below.
compound	pKi
COc1cccc(OC)c1CNc1ccc2c(NCc3cccnc3)cccc2n1 [Example 99]	7.07
CC1Cc2cccc(Nc3ccc4c(NCc5cccc6[nH]ccc56)cccc4n3)c2O1 (stereo not drawn) [Example 140]	7.92
COc1ccccc1CNc1ccc2c(NCc3cnc(C)[nH]3)cccc2n1 [Example 97]	7.51
Cc1ccc(CNc2ccc3c(NCc4cccc5c4OCO5)cccc3n2)o1 [Example 103]	8.18
Cc1ccc(CNc2ccc3c(NS(=O)(=O)c4ccc(Cl)s4)cccc3n2)o1 [Example 58]	8.12

a = COc1cccc(OC)c1CNc1ccc2c(NCc3cccc4[nH]ccc34)cccc2n1 [Example 109]
b = Cc1ccc(CNc2ccc3c(NC4CCSc5ccccc54)cccc3n2)o1 (racemic) [Example 135]
c = Cc1ccc(CNc2ccc3c(NS(=O)(=O)Nc4ccccc4)cccc3n2)o1 [Example 145]
Task for the reader: rank each entry by its pKi, from the minimum upward. Reply with the item labels sorted in the order that was asked for.
a, c, b
(a: 7.01, c: 7.29, b: 7.77)

---

targetOrTestSystem: recombinant human 5-HT5A receptor (Homo sapiens, UniProt P47898)
Construct: membranes
experimentNotes: [3H]LSD radioligand binding assay
experimentalConditions: [3H]LSD approx. 1 nM; membranes from HEK-EBNA cells transiently expressing 5-HT5A; Ki from IC50 by Cheng-Prussoff
propertyMeasured: Ki (nM)

compound	Ki, nM
Cc1ccc(CNc2ccc3c(NCc4ccc(F)cc4)cccc3n2)o1	25.4
Cc1ccc(CNc2ccc3c(CCc4ccccc4)cccc3n2)o1	21.3
Cc1cc2cccc(Nc3ccc4c(NCc5ccc6[nH]cnc6c5)cccc4n3)c2o1	6.29

1 = COc1ccccc1CNc1ccc2c(NCc3ccccc3)cccc2n1
2 = Cc1ccc(CNc2ccc3c(NC4CCS(=O)(=O)c5ccccc54)cccc3n2)o1 (racemic)
Given 1 and given 2 , which shows the smaller recorded Ki? Answer with the label corresponding to your selection.
1
(1: 7.57 nM, 2: 18.2 nM)

---

targetOrTestSystem: recombinant human 5-HT5A receptor (Homo sapiens, UniProt P47898)
Construct: membranes
experimentNotes: [3H]LSD radioligand binding assay
experimentalConditions: [3H]LSD approx. 1 nM; membranes from HEK-EBNA cells transiently expressing 5-HT5A; Ki from IC50 by Cheng-Prussoff
propertyMeasured: Ki (nM)

Consider the worked cases shown below.
compound	Ki, nM
Cc1ccc(CNc2ccc3c(SCc4ccccc4)cccc3n2)o1 [Example 46]	34.1
FC(F)(F)Oc1ccccc1CNc1ccc2c(NCc3ccc4[nH]cnc4c3)cccc2n1 [Example 117]	32.4

P = COc1ccccc1CNc1ccc2c(NS(=O)(=O)c3ccc(F)cc3)cccc2n1 [Example 61]
Q = COc1ccccc1CNc1ccc2c(NCc3ccncc3)cccc2n1 [Example 9]
R = Cc1ccc(CNc2ccc3c(Nc4ccc(F)cc4)cccc3n2)o1 [Example 45]
S = CC(Nc1cccc2nc(Nc3cccc4c3OC(C)(C)C4)ccc12)c1cc(F)cc(F)c1 (racemic) [Example 151]
Task for the reader: rank each entry by its Ki, from the minimum upward. Reply with the item labels sorted in the order that was asked for.
S, R, P, Q
(S: 4.74 nM, R: 13.2 nM, P: 19.2 nM, Q: 34.5 nM)

I = COc1ccccc1CNc1ccc2c(CCc3cccc(CO)c3)cccc2n1 [Example 23]
II = Cc1ccc(CNc2ccc3c(CNc4ccccn4)cccc3n2)o1 [Example 37]
III = COc1cccc(CNc2cccc3nc(NCc4ccccc4OC)ccc23)c1 [Example 5]
IV = Cc1ccc(CNc2ccc3c(NCc4ccc5[nH]cnc5c4)cccc3n2)o1 [Example 107]
V = Cc1ccc(CNc2ccc3c(Nc4cccc5cc[nH]c45)cccc3n2)o1 [Example 93]
Order the 5 compounds from highest to lowest Ki. Reply with the item labels sorted in the order that was asked for.
II, V, I, III, IV
(II: 49.5 nM, V: 28.2 nM, I: 18.4 nM, III: 9.7 nM, IV: 3.92 nM)

---

targetOrTestSystem: recombinant human 5-HT5A receptor (Homo sapiens)
Construct: membranes
experimentNotes: [3H]LSD radioligand binding assay
experimentalConditions: [3H]LSD approx. 1 nM; membranes from HEK-EBNA cells transiently expressing 5-HT5A; Ki from IC50 by Cheng-Prussoff
propertyMeasured: Ki (nM)

molecule	Ki (nM)
Cc1ccc(CNc2ccc3c(NS(=O)(=O)c4ccc(Cl)nc4)cccc3n2)o1 [Example 59]	19.9

1 = COc1ccccc1CNc1ccc2c(NCc3nccs3)cccc2n1 [Example 110]
2 = Cc1ccc(CNc2ccc3c(NCc4ccccc4N4CCN(C)CC4)cccc3n2)o1 [Example 105]
3 = O=S(=O)(Nc1cccc2nc(Nc3cccc4c3OCC4)ccc12)c1cc(F)cc(F)c1 [Example 139]
4 = COc1ccccc1CNc1ccc2c(NCc3ccc4nc[nH]c4c3)cccc2n1 [Example 114]
Order the 4 molecules from highest to lowest Ki. Reply with the item labels sorted in the order that was asked for.
3, 2, 1, 4
(3: 35.5 nM, 2: 24.1 nM, 1: 16.8 nM, 4: 3.33 nM)

a = Cc1cc2cccc(Nc3ccc4c(Nc5cccc6[nH]ccc56)cccc4n3)c2o1 [Example 113]
b = Cc1ccc(CNc2ccc3c(NS(=O)(=O)c4ccc(F)c(F)c4)cccc3n2)o1 [Example 74]
Given a and given b , which shows the smaller recorded Ki? Answer with the label corresponding to your selection.
b

---

targetOrTestSystem: recombinant human 5-HT5A receptor (Homo sapiens, UniProt P47898)
Construct: membranes
experimentNotes: [3H]LSD radioligand binding assay
experimentalConditions: [3H]LSD approx. 1 nM; membranes from HEK-EBNA cells transiently expressing 5-HT5A; Ki from IC50 by Cheng-Prussoff
pKi: −log10 of the molar value.
propertyMeasured: pKi

Consider the worked cases shown below.
smilesRepr	pKi
Cc1ccc(CNc2ccc3c(NS(=O)(=O)c4ccccc4)cccc3n2)o1	7.54
Cc1ccc(CNc2ccc3c(Nc4ccc(Cl)nc4)cccc3n2)o1	7.50
COCCOc1cccc(CNc2cccc3nc(NCc4ccc(C)o4)ccc23)c1	7.31
COc1ccccc1CNc1ccc2c(C(=N)c3ccc(F)cc3)cccc2n1	7.45
CC1(C)Cc2cccc(Nc3ccc4c(NS(=O)(=O)c5cc(F)cc(F)c5)cccc4n3)c2O1	7.66

I = O=S(=O)(Nc1cccc2nc(NCCOc3ccccc3)ccc12)c1cc(F)cc(F)c1
II = CC(C)(C)c1cccc(Nc2ccc3c(NS(=O)(=O)c4cc(F)cc(F)c4)cccc3n2)c1
III = Cc1ccc(CNc2ccc3c(NCc4cc(F)cc(F)c4)cccc3n2)o1
Order the 3 compounds from highest to lowest pKi. Reply with the item labels sorted in the order that was asked for.
III, I, II

1 = Cc1ccc(CNc2ccc3c(NCc4nccs4)cccc3n2)o1
2 = Cc1ccc(CNc2ccc3c(NCc4cccc5[nH]ccc45)cccc3n2)o1
Would you let me know which has the greater pKi value, 1 or 2 ? Answer with the label corresponding to your selection.
2
(2: 8.28, 1: 7.64)

1 = Cc1ccc(CNc2ccc3c(Nc4cccc5[nH]ccc45)cccc3n2)o1
2 = COc1ccccc1CNc1ccc2c(CNC(=O)c3ccc(F)cc3)cccc2n1
3 = CC1(C)Cc2cccc(Nc3ccc4c(NCc5ccc6[nH]cnc6c5)cccc4n3)c2O1
Order the 3 compounds from highest to lowest pKi. Reply with the item labels sorted in the order that was asked for.
3, 1, 2

1 = c1cc(Nc2ccc3c(NCc4cccc5[nH]ccc45)cccc3n2)cc(C2CC2)c1
2 = Cc1cc2cccc(Nc3ccc4c(NCc5[nH]cnc5C)cccc4n3)c2o1
Given 1 and given 2 , which shows the smaller recorded pKi? Answer with the label corresponding to your selection.
1
(1: 7.78, 2: 8.63)

---

targetOrTestSystem: recombinant human 5-HT5A receptor (Homo sapiens)
Construct: membranes
experimentNotes: [3H]LSD radioligand binding assay
experimentalConditions: [3H]LSD approx. 1 nM; membranes from HEK-EBNA cells transiently expressing 5-HT5A; Ki from IC50 by Cheng-Prussoff
pKi: −log10 of the molar value.
propertyMeasured: pKi

Consider the worked cases shown below.
molecule	measurement
COc1ncccc1CNc1cccc2nc(NCc3ccc(C)o3)ccc12	7.37
CC1(C)Cc2cccc(Nc3ccc4c(NC5CCS(=O)(=O)c6ccccc65)cccc4n3)c2O1 (racemic)	7.81
COc1ccccc1CNc1cccc2nc(NCc3ccc(C)o3)ccc12	7.81
Cc1cc2cccc(Nc3ccc4c(NCc5cnc[nH]5)cccc4n3)c2o1	7.76
CC1(C)Cc2cccc(Nc3ccc4c(NCc5cccc6[nH]ccc56)cccc4n3)c2O1	8.37
COc1ccccc1CNc1ccc2c(CCc3cccnc3)cccc2n1	7.49
CC(Nc1cccc2nc(Nc3cccc4c3OC(C)(C)C4)ccc12)c1nccs1 (racemic)	7.80
Cc1nc(CNc2cccc3nc(NCc4ccc(C)o4)ccc23)c[nH]1	7.28
CC1(C)Cc2cccc(Nc3ccc4c(NCc5cccnc5)cccc4n3)c2O1	8.00
Cc1ccc(CNc2ccc3c(CNc4ccccc4)cccc3n2)o1	7.63

I = Cc1ccc(CNc2ccc3c(NS(=O)(=O)c4ccc(F)cc4)cccc3n2)o1
II = Cc1ccc(CNc2ccc3c(NC4CCOc5ccccc54)cccc3n2)o1 (racemic)
Given I and given II , which shows the smaller recorded pKi? Answer with the label corresponding to your selection.
II
(II: 7.43, I: 7.90)
